# measurement.notes: folding stability dG unfold from trypsin proteolysis; higher = more stable
quantity.name: folding stability dG unfold (kcal/mol)
Write the value in kcal/mol as a bare number.

{"macromolecule.sequence": "SAGGSAGGSAGGNPPDWKPVGEEEFPIPNPNGMQIKISVWTIRAPDDGKSASFIDIEMYPSAGGSAGGSAGG [r7_546_TrROS]", "folding stability dG unfold [kcal/mol]": 1.19}
{"macromolecule.sequence": "SAGGSAGGSAGENKPIKVLVFLEKEDEYYEELFEFDSPEEIEEWLKKIPKDYKVKKVIVFSAGGSAGGSAGG [r17_410_TrMRF]", "folding stability dG unfold [kcal/mol]": 3.09}
{"macromolecule.sequence": "SANMPPGDWKPINIKVKIERPGGKPEFEYPIYKHPDGMIMIFIHFPIPPGAYKIKIEFPGNGKENEFKFSAG [r14_280_TrROS]", "folding stability dG unfold [kcal/mol]": 1.52}

Here's the next entry for you.
Entry SAGGSAYGYFYEYKIRFNGQDLSIALPAGDMEKLKDLPGVEIEPRRPEEPPPPPKEEERDPDGKKKSAGGSA [r15_443_TrROS] : reported folding stability dG unfold = ? 2.3
